Hello, the source for this data is the Human Domainome abundance scans (Beltran et al. 2025), in case you need it.

B1: CD2-associated protein, residues 109 to 169; numbered along this chain, Q9Y5K6 (parent)
chain: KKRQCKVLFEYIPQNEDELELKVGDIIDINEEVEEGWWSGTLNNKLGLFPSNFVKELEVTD

variants of: B1; experiment: abundance fitness (aPCA) (normalised: wild type 0, dead -1); higher = more abundant; growth selection in yeast, the domain comes from the species named; conditions: Homo sapiens
Let's look at some variants and their measured abundance fitness.

{"columns": ["Mutation key", "abundance fitness"],
 "data": [
  ["N43F", -0.137],
  ["N44K", 0.019],
  ["L57C", -0.041],
  ["L48E", -0.539],
  ["E58F", -0.207],
  ["P50L", -0.665],
  ["P50T", -0.367],
  ["E56A", -0.366],
  ["L42K", -0.317],
  ["N44S", -0.261],
  ["T41Q", -0.062],
  ["G40L", -1.17],
  ["E58T", -0.211],
  ["S39V", 0.094],
  ["S51I", -0.178],
  ["F49Y", -0.27],
  ["I27K", -1.03],
  ["P50V", -1.03],
  ["L46T", 0.151],
  ["E32I", -0.28],
  ["G36E", 0.041],
  ["F53G", -0.48]
]}
